Consider the following compounds; for each one, report its AurB ligand efficiency (LE).
target: UniProt:Q96GD4; assay type: biochemical; details: from Ki
Sequence (Q96GD4 whole entry): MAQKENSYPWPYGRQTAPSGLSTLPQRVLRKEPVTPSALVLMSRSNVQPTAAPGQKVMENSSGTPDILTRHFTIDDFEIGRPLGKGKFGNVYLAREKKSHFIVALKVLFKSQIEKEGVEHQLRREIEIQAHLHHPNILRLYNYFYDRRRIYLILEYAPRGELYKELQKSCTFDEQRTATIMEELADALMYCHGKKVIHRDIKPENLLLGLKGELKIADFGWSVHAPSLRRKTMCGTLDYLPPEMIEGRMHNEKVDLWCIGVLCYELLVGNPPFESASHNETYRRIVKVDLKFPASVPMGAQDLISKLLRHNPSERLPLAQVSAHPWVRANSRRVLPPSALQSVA
Answers are plain numbers.

Recorded results for 2 compounds are shown here.
CN1CCN(c2ccc(C(=O)Nc3cc(-c4ccncc4)c[nH]c3=O)cc2)CC1    0.25
Nc1cc(-c2cccnc2)c[nH]c1=O    0.39

For each listed entry, give its AurB ligand efficiency (LE).
1. O=C(Nc1cc(-c2ccncc2)c[nH]c1=O)c1ccccc1
2. Nc1cc(-c2cncnc2)c[nH]c1=O
3. Nc1ccc[nH]c1=O
4. Cn1cc(-c2c[nH]c(=O)c(N)c2)cn1
5. O=C(Nc1cc(-c2ccncc2)c[nH]c1=O)c1ccc(N2CCCCC2)cc1
6. COc1ncc(-c2ccncc2)cc1N

0.27
0.46
0.64
0.53
0.25
0.38

Hey, can you go through the list below and give me AurB ligand efficiency (LE) for every item?
1. Nc1cc(-c2ccccc2)cnc1O
2. Nc1cc(-c2ccnc3ccccc23)c[nH]c1=O

0.40
0.33

###

target: SRC (Homo sapiens); construct: purchased Perkin Elmer (ProfilerPro assay kit 1); assay: 26-kinase panel mobility shift assay, single concentration; type: biochemical; conditions: read-out: % Inhibition SRC
Sequence (P12931 whole entry): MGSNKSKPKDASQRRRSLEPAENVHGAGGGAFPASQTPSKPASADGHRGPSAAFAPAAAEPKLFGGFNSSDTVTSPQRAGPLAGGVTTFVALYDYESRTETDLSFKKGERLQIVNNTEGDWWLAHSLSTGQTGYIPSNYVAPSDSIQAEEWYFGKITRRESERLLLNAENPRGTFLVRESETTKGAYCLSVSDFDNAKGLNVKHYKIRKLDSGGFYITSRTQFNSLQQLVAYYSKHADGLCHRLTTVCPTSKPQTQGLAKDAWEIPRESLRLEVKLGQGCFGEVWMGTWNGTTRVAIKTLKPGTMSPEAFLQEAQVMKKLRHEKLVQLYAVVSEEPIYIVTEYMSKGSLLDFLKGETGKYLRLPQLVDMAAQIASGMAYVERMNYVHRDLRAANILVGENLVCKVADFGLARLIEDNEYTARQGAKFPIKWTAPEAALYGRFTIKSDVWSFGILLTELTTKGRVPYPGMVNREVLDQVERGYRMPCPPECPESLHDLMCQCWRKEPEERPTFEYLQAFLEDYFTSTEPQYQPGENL
Provide the recorded inhibition at 100 µM for the entries that follow.

Below: 5 compounds and their reported inhibition at 100 µM.
COc1ncc(-c2ccncc2)cc1N    8%
Cn1cc(-c2c[nH]c(=O)c(N)c2)cn1    86%
Nc1cc(-c2ccnc3ccccc23)c[nH]c1=O    24%
CNc1nccc(-c2c[nH]c(=O)c(N)c2)n1    89%
COc1cccc(C(=O)Nc2cc(-c3ccncc3)c[nH]c2=O)c1    59%

// batch mode: one inhibition at 100 µM value per listed entry
1. Nc1cc(-c2ccnc(NC3CC3)n2)c[nH]c1=O
2. Nc1ccc[nH]c1=O
3. Cc1nc(O)c(N)cc1-c1ccncc1

["46%", "31%", "21%"]

###

Target: Aurora A (Homo sapiens, UniProt O14965)
Sequence (O14965 1-403): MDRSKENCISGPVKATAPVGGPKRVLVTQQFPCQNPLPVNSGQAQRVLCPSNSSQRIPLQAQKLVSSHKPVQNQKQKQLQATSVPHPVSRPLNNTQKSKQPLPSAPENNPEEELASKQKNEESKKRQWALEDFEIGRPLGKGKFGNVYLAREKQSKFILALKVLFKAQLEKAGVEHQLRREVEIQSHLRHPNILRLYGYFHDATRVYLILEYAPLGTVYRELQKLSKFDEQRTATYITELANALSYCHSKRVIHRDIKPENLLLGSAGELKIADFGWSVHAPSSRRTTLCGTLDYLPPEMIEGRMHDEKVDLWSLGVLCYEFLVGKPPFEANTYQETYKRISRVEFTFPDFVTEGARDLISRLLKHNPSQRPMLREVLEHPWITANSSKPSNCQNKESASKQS
Please go through the items and note down their pKi.
Give bare numbers, as −log10 of the molar value.

Go through the items and report each one's pKi.
1. O=C(Nc1cc(-c2ccnc(NC3CC3)n2)c[nH]c1=O)c1ccccc1
2. Nc1ccc[nH]c1=O
3. Nc1cc(-c2ccccc2)cnc1O
4. CNc1nccc(-c2c[nH]c(=O)c(N)c2)n1

1. 4.76
2. 3.44
3. 4.17
4. 4.67

For every record below, what is its pKi?
1. COc1ncc(-c2ccncc2)cc1N
2. Nc1cc(-c2cncnc2)c[nH]c1=O

1. 3.73
2. 4.05
